System: NCI-H522 lung
Method description: NCI-60 one-dose screen, 48 h (100 = growth as untreated, 0 = no growth, -100 = all killed)
Experimental conditions: 10 µM unless noted
The panel holds about 83,000 compounds, 20% with a hit somewhere; the sample as a whole holds those more often.
The following ranges of growth define the classes used here: interval 1 (below 20%), interval 2 (20% to below 90%), interval 3 (90% or more)

O=C(c1ccccc1)C(CN1CCOCC1)c1ccccc1 (stereo not drawn) : interval 1
COc1ccc2c(c1)c(-c1nc(-c3c[nH]c4ncccc34)cs1)cn2C : interval 2

// query For Oc1cccc2ccc(N/N=C/c3cc(CN4CCCCC4)c(O)c4ncccc34)nc12 , which growth bin applies?
// result interval 1

// query For COc1cccc(-c2nn(-c3ccccc3)cc2-c2ccnc(NCCCNS(=O)(=O)c3ccc(C(F)(F)F)cc3)c2)c1 , which growth bin applies?
// result interval 1

// query For NC(=O)NCC1CCCCC1 , which growth bin applies?
// result interval 3

* * *

Test system: T-47D breast
Method description: NCI-60 one-dose screen, 48 h (100 = growth as untreated, 0 = no growth, -100 = all killed)
Experimental conditions: 10 µM unless noted
This is part of a sample that, as a whole, favours compounds with a hit. Of some 83,000 tested, about 20% had one in any assay.
Criterion: growth strictly under 40%. Met: true (1). Not met: false (0).

O=S(=O)(NCCNc1cc(-c2cn(-c3ccccc3)nc2-c2cccc(O)c2)ccn1)c1ccccc1 : true (1)

// query Input NC(=O)[C@@H]1CC2CCC1C2 (stereo partly drawn) ; condition: growth strictly below 40%. Does it hold?
// result false (0)

* * *

Test system: SF-539 CNS
Method description: NCI-60 one-dose screen, 48 h (100 = growth as untreated, 0 = no growth, -100 = all killed)
Experimental conditions: 10 µM unless noted
About 83,000 compounds went through this panel and 20% of them were active in at least one assay; those are over-represented in the sample as a whole.
Measured property: growth (%)
One number for each entry, in %.

Consider the following items and state reported growth for each.
1. COc1ccc2c(c1)c(-c1nc(-c3c[nH]c4ncccc34)cs1)cn2CCCN1CCCCC1
2. O=P(O)(c1ccccc1)c1ccccc1I
3. Fc1ccc2nc(-c3cc(-c4ccc5c(c4)OCO5)n[nH]3)[nH]c2c1
4. C[C@@H](C(=O)O)c1ccc2c3cc(Cl)ccc3n(Cc3cc(=O)oc4ccc(Cl)cc34)c2c1
5. NCCn1cc(-c2nc(-c3c[nH]c4ncccc34)cs2)c2cc(F)ccc21

// result
1. -63.6
2. 101
3. 56.3
4. 102
5. 82.7

// query I have this molecule here, Cc1cc(N(CCNc2ccnc3cc(Cl)ccc23)Cc2ccco2)nc(Cl)n1 , and I need its recorded growth.
// result -80.8

* * *

System: SF-268 CNS
Method description: NCI-60 one-dose screen, 48 h
Experimental conditions: 10 µM unless noted
About 83,000 compounds went through this panel and 20% of them were active in at least one assay; those are over-represented in the sample as a whole. Active and inactive are the calls of the source. How the source made its calls: active means growth percent below 10; inactive means the rest.
Answer with one of the outcomes active, inactive

As a guide, the following entries are already answered.
N#C/C(=C\c1ccc(-c2ccc(Br)cc2)o1)c1nc(-c2ccco2)cs1 : inactive
Cc1csc(-c2ccc3c(c2)COC3(CCCN(C)C)c2ccc(F)cc2)c1 (centres undefined) : inactive
CCN1CCN(C(=O)[C@]23CCC(C)(C)C[C@@H]2C2=CC[C@@H]4[C@@]5(C)C/C(=C/c6cccnc6)C(=O)C(C)(C)[C@@H]5CC[C@@]4(C)[C@]2(C)CC3)CC1 : inactive
Oc1cc(/C=C/c2nc(N3CCOCC3)c3cc(Cl)c(Cl)cc3n2)cc(O)c1O : inactive
C=C(C)[C@@H]1CC[C@]2(C(=O)OC)CC[C@]3(C)[C@H](CC[C@@H]4[C@@](C)(CC/C(N)=N/O)[C@H](C(=C)C)CC[C@]43C)[C@@H]12 : inactive
O=C1CN(c2ccccc2)C(=O)C1C(=O)Nc1ccc(Cl)c(Cl)c1 (centres undefined) : inactive
COc1ccc2c(c1)C/C(=C\c1cc(-c3ccc4c(c3)OCO4)n[nH]1)C2=O : inactive
NC1=NN(c2ccccc2)C(=O)/C1=C/c1ccc(Cl)cc1 : inactive

// query How did this test come out for O=S(=O)(NCCNc1cc(-c2cn(-c3ccccc3)nc2-c2cccc(O)c2)ccn1)c1ccccc1 ?
// result inactive

// query How did this test come out for CC(=O)Oc1ccccc1C(=O)/C=C/c1cccc([N+](=O)[O-])c1 ?
// result inactive

All figures here come from PubChem BioAssay (NCI).
